System: HIPK4
Details: concentration: 1 μM, replicates: in singlicate; n = 1;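 also: KINOMEscan kinase panel screen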
Would you kindly list %Inh for each of these compounds?
Give bare numbers, in %.

1. C[C@@H]1CC[C@@H](C(=O)Nc2ccccc2)CN1c1cc(-c2ccc3c(N)n[nH]c3c2)nc(N)n1 [GSK2286062]	25
2. CN1CCN(Cc2cccc(-c3ccc4c(Nc5ccc(Oc6ccccc6)cc5)ccnc4c3)c2)CC1 [GW578342]	0
3. Cc1occc1-c1ncc(OC[C@@H](N)Cc2c[nH]c3ccccc23)cc1-c1ccc2[nH]nc(C)c2c1.O=C(O)C(F)(F)F [GSK682037]	35
4. C[C@@H](Oc1cc(-n2cnc3cc(-c4ccnc(NCCS(C)(=O)=O)c4)ccc32)sc1C(N)=O)c1ccccc1Cl [GSK907232]	20
5. Cl.Cl.NCC(NC(=O)c1cc(-c2ccccc2)c(-c2ccnc3[nH]ccc23)s1)c1ccccc1 (stereo not shown) [GSK1321561]	50
6. COc1cc(Nc2nccc(N3CCC(NC(=O)c4cc5ccccc5s4)C3)n2)cc(OC)c1OC (stereo not shown) [GSK1379760]	9

# next compound below
Identify the measured %Inh of Cl.Cl.NCC(C(=O)Nc1cc(Br)c(-c2ccnc3[nH]ccc23)s1)c1ccccc1 (stereo not shown) [GSK1269851] for HIPK4.
81

----------
Tested on: MARK2
Settings: concentration: 1 μM, replicates: in singlicate; n = 1
Would you kindly list %Inh for each of these compounds?
One number for each entry, in %.

Give %Inh for all compounds that follow.
1. Clc1ccc(-c2nn3ncccc3c2-c2ccnc(Nc3ccc4c(c3)OCCO4)n2)cc1
2. O=C(Nc1n[nH]c2cc(-c3ccoc3)ccc12)C1CC1
3. Cl.NC(=O)c1cccc(Nc2nccc(Nc3ccc(Oc4c(Cl)cccc4Cl)c(Cl)c3)n2)c1
4. COc1ccc(Nc2nccc(NCCNC(=O)c3cc4ccccc4s3)n2)cc1

1: 0; 2: 15; 3: 0; 4: 0

# %Inh lookup, item COC(=O)Nc1nc2ccc(Oc3ccc(NC(=O)Nc4cc(C(F)(F)F)ccc4F)cc3)cc2n1C.Cl
0

----------
Would you kindly list %Inh for each of these compounds?
Tested on: PDPK1
Settings: concentration: 1 μM, replicates: in singlicate; n = 1

Known results for compounds:
1) CC(=O)Nc1nc2cnc(Nc3cc(NC(=O)c4cccc(C5(C#N)CC5)c4Cl)ccc3C)nc2s1	1%
2) CSc1cccc2c(-c3ccncn3)c(-c3ccc(F)cc3)nn12	0%
3) CN1CCN(Cc2cccc(-c3ccc4c(Nc5ccc(Oc6ccccc6)cc5)ccnc4c3)c2)CC1	0%

# next compound below
Identify the measured %Inh of COc1cc(Nc2nccc(-c3c(-c4cccc(NC(=O)c5c(F)cccc5F)c4)nn4ccccc34)n2)cc(OC)c1OC for PDPK1.
13%

----------
Tested on: CDK5
Details: concentration: 1 μM, replicates: in singlicate; n = 1
quantity-name: %Inh (%)
Numbers only, in %.

1) COc1cc(Nc2nccc(-c3c(-c4cccc(NC(=O)c5c(F)cccc5F)c4)nn4ncccc34)n2)cc(OC)c1OC	0
2) O=C(Nc1cccc(Oc2ccc3nc(NC(=O)C4CC4)cn3n2)c1)c1ccccc1C(F)(F)F	0
3) Nc1ncnc2c1nc(-c1ccccc1)n2-c1ccccc1	3
4) Cn1cc(-c2[nH]c3cc(NC(=O)[C@H](N)C4CCCCC4)cc4c3c2C=NNC4=O)cn1	11
5) CSc1cccc2c(-c3ccncn3)c(-c3ccc(F)cc3)nn12	0

Give %Inh for all molecules that follow.
1. COc1cccc(C2=C(Nc3ccc(Cl)c(C(=O)O)c3)C(=O)NC2=O)c1
2. CC(C)(C)c1ccc2nccc(Nc3cccc(O)c3)c2c1
3. COc1ccc(Nc2nccc(NCCNC(=O)c3cc4ccccc4s3)n2)cc1
4. Cl.NC(=O)c1cccc(Nc2nccc(Nc3ccc(Oc4c(Cl)cccc4Cl)c(Cl)c3)n2)c1

[0, 0, 0, 0]
